# Protocol Notes: solvent given as SMILES
# Details: in ClCCl
Measured Parameter: emission maximum (nm)

[[record]]
molecule = "Cc1ccccc1[B-]1(c2ccccc2C)n2nc(C(F)(F)F)cc2-c2c3ccccc3cc[n+]21"
unit_descriptor = "nm"
recorded_result = 412

[[record]]
molecule = "CCCCCCN(c1ccccc1)c1ccc2c(c1)C(CC)(CC)c1cc(/C=C/c3ccc(/C=C(\\C#N)C(=O)O)s3)ccc1-2"
unit_descriptor = "nm"
recorded_result = 594

[[record]]
molecule = "CCN(CC)c1ccc2cc(-c3nc4cc(C(=O)Nc5cccc(OC)c5)ccc4o3)c(=O)oc2c1"
unit_descriptor = "nm"
recorded_result = 494

[[record]]
molecule = "c1ccc2c(c1)OB1Oc3ccccc3-c3c1c-2c1c2c3-c3ccccc3OB2Oc2ccccc2-1"
unit_descriptor = "nm"
recorded_result = 430

[[record]]
molecule = "Ic1ccc(-c2c3ccc(=[N+]4CCCCC4)cc-3oc3cc(N4CCCCC4)ccc23)cc1"
unit_descriptor = "nm"
recorded_result = 590

[[record]]
molecule = "CC1=C(C)c2cccc3c2c(cc2nc4ccccc4nc23)O1"
unit_descriptor = "nm"
recorded_result = 563

[[record]]
molecule = "CN(C)c1ccc(C#Cc2ccc3ccc4ccc(C#Cc5ccc(N(C)C)cc5)c5ccc2c3c45)cc1"
unit_descriptor = "nm"
recorded_result = 532.7

[[record]]
molecule = "F[B-]1(F)OC(c2ccccc2)=Cc2cc3[n+](c[n+]21)[B-](F)(F)OC(c1ccccc1)=C3"
unit_descriptor = "nm"
recorded_result = 490

[[record]]
molecule = "CC1=N/C(=C\\c2ccccc2N)C(=O)N1C"
unit_descriptor = "nm"
recorded_result = 452

[[record]]
molecule = "CC(C)c1ccc2ccc3c(C(C)C)ccc4ccc1c2c43"
unit_descriptor = "nm"
recorded_result = 381

[[record]]
molecule = "CC(C)(C)c1ccc(-c2nc3c4ccc(-c5c6ccccc6cc6ccccc56)cc4c4cc(-c5c6ccccc6cc6ccccc56)ccc4c3n2-c2ccc(C(C)(C)C)cc2)cc1"
unit_descriptor = "nm"
recorded_result = 442

[[record]]
molecule = "F[B-]1(F)n2c(c3ccccc3c2-c2ccccc2)C=C2c3ccccc3C(c3ccccc3)=[N+]21"
unit_descriptor = "nm"
recorded_result = 658

[[record]]
molecule = "Clc1cc(Cl)c(B2c3ccccc3Nc3ccccc32)c(Cl)c1"
unit_descriptor = "nm"
recorded_result = 413

[[record]]
molecule = "[BH3-][P+]1(c2ccccc2)c2ccccc2-c2sc3ccccc3c21 (stereo unspecified)"
unit_descriptor = "nm"
recorded_result = 400

[[record]]
molecule = "c1ccc(N2N=C(c3c4ccccc4cc4ccccc34)CC2c2ccc3ccc4cccc5ccc2c3c45)cc1 (stereo unspecified)"
unit_descriptor = "nm"
recorded_result = 509

[[record]]
molecule = "CSc1nccc(/C=C/c2ccc(N(c3ccccc3)c3ccc(/C=C/c4ccnc(SC)n4)cc3)cc2)n1"
unit_descriptor = "nm"
recorded_result = 540

[[record]]
molecule = "C(=C\\c1ccncn1)/c1ccc(-c2ccc(N(c3ccccc3)c3ccccc3)cc2)cc1"
unit_descriptor = "nm"
recorded_result = 563

[[record]]
molecule = "CN(C)c1ccc(C2=CC3=C(c4ccc(C=O)cc4)[C@H]4c5ccccc5[C@]3(S2)c2ccccc24)cc1"
unit_descriptor = "nm"
recorded_result = 616

[[record]]
molecule = "CCCCCCCCCCCCC(CCCCCCCCCC)Cn1c2cc(C=C(C#N)C#N)c3cccc4c5cccc6c(C=C(C#N)C#N)cc1c(c65)c2c34 (stereo unspecified)"
unit_descriptor = "nm"
recorded_result = 635

[[record]]
molecule = "CC1=C(C#Cc2ccc(B(c3c(C)cc(C)cc3C)c3c(C)cc(C)cc3C)cc2)C(C)=[N+]2C1=C(c1ccccc1)c1c(C)c(C#Cc3ccc(B(c4c(C)cc(C)cc4C)c4c(C)cc(C)cc4C)cc3)c(C)n1[B-]2(F)F"
unit_descriptor = "nm"
recorded_result = 602

[[record]]
molecule = "Cc1ccc(C(=O)NN2C3=C(CC4=C2CCCC4=O)C(=O)CCC3)cc1"
unit_descriptor = "nm"
recorded_result = 435

[[record]]
molecule = "O=C(O)C1=C(C(=O)O)C2=C[C@H]3c4ccccc4[C@]2(S1)c1ccccc13"
unit_descriptor = "nm"
recorded_result = 503

[[record]]
molecule = "COc1ccc2cc(C(C)C(=O)Oc3ccc(-c4c5nc(c(-c6ccc(C)cc6)c6ccc([nH]6)c(-c6ccc(C)cc6)c6nc(c(-c7ccc(C)cc7)c7ccc4[nH]7)C=C6)C=C5)cc3)ccc2c1 (stereo unspecified)"
unit_descriptor = "nm"
recorded_result = 654

[[record]]
molecule = "CCC1(CC)c2cc(/C=C/c3ccc(/C=C/c4ccc5c(c4)C(CC)(CC)c4cc(N6c7ccccc7Sc7ccccc76)ccc4-5)cc3)ccc2-c2ccc(N3c4ccccc4Sc4ccccc43)cc21"
unit_descriptor = "nm"
recorded_result = 435

[[record]]
molecule = "CCCCN(CCCC)c1ccc(C#Cc2cc(C#Cc3ccc(N(CCCC)CCCC)cc3)c(C#Cc3ccc(C#N)cc3)cc2C#Cc2ccc(C#N)cc2)cc1"
unit_descriptor = "nm"
recorded_result = 557

[[record]]
molecule = "C(=C\\c1cc(-c2ccccc2)c(/C=C/c2ccc(N(c3ccccc3)c3ccccc3)cc2)cc1-c1ccccc1)/c1ccc(N(c2ccccc2)c2ccccc2)cc1"
unit_descriptor = "nm"
recorded_result = 495

